I'd be grateful if you could share measured reverse-splicing fitness for these entries.
B1: Azoarcus group I ribozyme (parent)
chain: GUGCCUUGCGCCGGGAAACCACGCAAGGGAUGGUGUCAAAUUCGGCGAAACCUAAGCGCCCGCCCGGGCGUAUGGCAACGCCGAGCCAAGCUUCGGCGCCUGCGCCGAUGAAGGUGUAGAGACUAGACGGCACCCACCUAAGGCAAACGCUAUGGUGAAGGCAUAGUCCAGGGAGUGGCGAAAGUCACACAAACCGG

# Variants of: B1
# Assay protocol: reverse-splicing fitness (ratio to wild type); higher = more active; in vitro selection; Mg2+ level not given
Write no unit; give the number alone.

Quick note, reverse-splicing fitness for A145G C150U C169A U176C landed at 0.0527

Quick note, reverse-splicing fitness for C82A A111G A120G A145C C150U C169G U176G landed at 0.00597

Quick note, reverse-splicing fitness for C82G A120C A145C C150A C169U U176G landed at 0.0044

Quick note, reverse-splicing fitness for C82A A111C A120U A145C C150U U176G landed at 0.0028

Quick note, reverse-splicing fitness for A111U A120C C169A landed at 0.0124

Quick note, reverse-splicing fitness for C82U A111U C150G U176C landed at 0.0152

Quick note, reverse-splicing fitness for C82G A111G A120G A145C C150U U176G landed at 0.00599

Quick note, reverse-splicing fitness for A111C C169G U176G landed at 0.00725

Quick note, reverse-splicing fitness for A120U A145G C150G C169A U176C landed at 0.00713

Quick note, reverse-splicing fitness for A111U A145C C150A C169G U176C landed at 0.0127

Quick note, reverse-splicing fitness for C82A A111C A120U A145U C150G U176C landed at 0.00511

Quick note, reverse-splicing fitness for C82G A111C A120U C150A C169A landed at 0.00547

Quick note, reverse-splicing fitness for C82U A111G A145G C169A landed at 0.00814

Quick note, reverse-splicing fitness for C82U A120G A145C C150G landed at 0.00804

Quick note, reverse-splicing fitness for A120C A145G C169A U176A landed at 0.0215

Quick note, reverse-splicing fitness for A120U A145G C150G C169G U176A landed at 0.00914

Quick note, reverse-splicing fitness for C82A A111C A145U C150A U176C landed at 0.0205

Quick note, reverse-splicing fitness for C82A A120C A145G C150G C169G landed at 0.00868

Quick note, reverse-splicing fitness for C82G A120U A145G C150A C169A landed at 0.00575

Quick note, reverse-splicing fitness for A120U A145G C150A C169G U176G landed at 0.00259

Quick note, reverse-splicing fitness for C82A A120G A145G C150G C169G U176G landed at 0.00587

Quick note, reverse-splicing fitness for C82U A120G U176C landed at 0.0175

Quick note, reverse-splicing fitness for C82G A145C C150G C169U U176A landed at 0.0101

Quick note, reverse-splicing fitness for C82A A111G C150U C169U landed at 0.0122
